Kindly state MIC (minimal inhibitory concentration) for each of the entries shown.
Tested on: Streptococcus Group 9960
METHOD: standard agar-dilution assay, MIC
Assay type: cell-based
Note: the reply should be a number with no unit written.

*Q* Specify MIC (minimal inhibitory concentration) for CCC(=O)OCC1C=C(C)C=CC(=O)C(C)CC(CC=O)C(OC2OC(C)C(OC3CC(C)(O)C(OC(=O)CC)C(C)O3)C(N(C)C)C2O)C(C)C(OC(=O)CC)CC(=O)OC1CC (stereo not drawn) and stop.
*A* 1

*Q* Supply recorded MIC (minimal inhibitory concentration) for CCC1OC(=O)CC(O)C(C)C(OC2OC(C)C(OC3CC(C)(O)C(OC(C)=O)C(C)O3)C(N(C)C)C2O)C(CC=O)CC(C)C(=O)C=CC(C)=CC1COC(C)=O (stereo not drawn) here.
*A* 0.5

*Q* Give the reported value of MIC (minimal inhibitory concentration) for this record: CCC1OC(=O)CC(OC(=O)C(Cl)(Cl)Cl)C(C)C(OC2OC(C)C(OC3CC(C)(O)C(OC(=O)C(Cl)(Cl)Cl)C(C)O3)C(N(C)C)C2OC(C)=O)C(CC=O)CC(C)C(=O)C=CC(C)=CC1COC(=O)C(Cl)(Cl)Cl (stereo not drawn)
*A* 16

*Q* Identify the reported MIC (minimal inhibitory concentration) for the following entry. CCC1OC(=O)CC(OC(=O)COc2ccccc2)C(C)C(OC2OC(C)C(OC3CC(C)(O)C(O)C(C)O3)C(N(C)C)C2OC(C)=O)C(CC=O)CC(C)C(=O)C=CC(C)=CC1COC(=O)COc1ccccc1 (stereo not drawn)
*A* 0.25

*Q* Give the reported MIC (minimal inhibitory concentration) for this compound. CCC1OC(=O)CC(O)C(C)C(OC2OC(C)C(OC3CC(C)(O)C(OC(=O)Cc4ccccc4)C(C)O3)C(N(C)C)C2O)C(CC=O)CC(C)C(=O)C=CC(C)=CC1C (stereo not drawn)
*A* 16

*Q* Assign MIC (minimal inhibitory concentration) to the following record: CCC1OC(=O)CC(O)C(C)C(OC2OC(C)C(OC3CC(C)(O)C(OC(=O)COc4ccccc4)C(C)O3)C(N(C)C)C2OC(C)=O)C(CC=O)CC(C)C(=O)C=CC(C)=CC1COC(=O)COc1ccccc1 (stereo not drawn)
*A* 16

*Q* Return MIC (minimal inhibitory concentration) for the following compound: CCC1OC(=O)CC(O)C(C)C(OC2OC(C)C(OC3CC(C)(O)C(OC(=O)CC(C)C)C(C)O3)C(N(C)C)C2O)C(CC=O)CC(C)C(=O)C=CC(C)=CC1C (stereo not drawn)
*A* 1

*Q* Kindly indicate its recorded MIC (minimal inhibitory concentration). Item: CCC1OC(=O)CC(OC(=O)C(Cl)(Cl)Cl)C(C)C(OC2OC(C)C(OC3CC(C)(O)C(O)C(C)O3)C(N(C)C)C2OC(C)=O)C(CC=O)CC(C)C(=O)C=CC(C)=CC1COC(=O)C(Cl)(Cl)Cl (stereo not drawn)
*A* 2
